# Test system: SK-MEL-5 melanoma
# assay_protocol: NCI-60 one-dose screen, 48 h (100 = growth as untreated, 0 = no growth, -100 = all killed)
# assay_setup: 10 µM unless noted
Compounds without any hit were thinned out: in the full panel of roughly 83,000, 20% have a hit.
growth reference

- compound: "O=S1(=O)OCCO1"
  growth, %: 101
- compound: "O=S(=O)(F)c1cccc(Cl)c1C[P+](c1ccccc1)(c1ccccc1)c1ccccc1"
  growth, %: 90.4
- compound: "O=P(O)(Nc1ccccc1)Nc1ccccc1"
  growth, %: 94.4
- compound: "CO[C@@H]([CH2][Hg][O]C(=O)c1ccccc1)[C@@H]([CH2][Hg][O]C(=O)c1ccccc1)OC"
  growth, %: 86.5
- compound: "O=S(OO)c1cc(Cl)c(O)c(Cl)c1 (stereo not drawn)"
  growth, %: 104
- compound: "N#CC(NC(=O)CCl)=C(Cl)Cl"
  growth, %: 25.4
- compound: "COc1ccc(C(C#N)C(C)=O)cc1 (stereo not drawn)"
  growth, %: 102
- compound: "O=[N+]([O-])c1ccc(OCc2ccc(S(=O)(=O)F)c(Cl)c2)c(Cl)c1"
  growth, %: 99.6
- compound: "CCCn1cc2c3c(cccc31)[C@H]1C[C@@H](C)CN(C)[C@@H]1C2"
  growth, %: 113
- compound: "CC[C@H](C)[C@H](NC(=O)C12CC(NC)(C1)C2)C(=O)N(C)[C@H](C[C@@H](OC(C)=O)c1nc(C(=O)N[C@@H](Cc2ccccc2)C[C@H](C)C(=O)OC)cs1)C(C)C"
  growth, %: -31.7
- compound: "Oc1ccccc1C=NCCN=Cc1ccccc1O.[Fe]"
  growth, %: 66.5
- compound: "Cc1ccc(S(=O)(=O)n2cc([C@@]3(O)C[C@H](CSC#N)OC3=O)c3ccccc32)cc1"
  growth, %: 66.6
- compound: "CNC(=O)O/N=C(\\SC)C(=O)N(C)C"
  growth, %: 109
- compound: "N#CCc1ccc(CC#N)cc1"
  growth, %: 101
- compound: "O=c1c2ccccc2nc(-c2ccccc2Cl)n1-c1nnc(C(F)(F)F)s1"
  growth, %: 9.47
- compound: "Nc1cccnc1"
  growth, %: 112
- compound: "CCCN1C(=O)NC(=O)C(CC)(N2C(=O)c3c(F)c(F)c(F)c(F)c3C2=O)C1=O (stereo not drawn)"
  growth, %: -91.7
- compound: "O=C/C=C/c1ccco1"
  growth, %: 113
- compound: "ClCc1ccc(Cl)c(Cl)c1"
  growth, %: 92.2
- compound: "c1ccc2c(c1)O[As](O[As]1Oc3ccccc3O1)O2"
  growth, %: 20.7
- compound: "Cc1c2ccncc2c(C)c2c1[nH]c1ccccc12"
  growth, %: -97.7
- compound: "CC[C@H](C)[C@H](NC(=O)[C@H]1CCCCN1C)C(=O)N(C)[C@H](C(=O)NC12CC(C(=O)N[C@@H](Cc3ccccc3)C[C@H](C)C(=O)OC)(C1)C2)C(C)C"
  growth, %: 101
- compound: "NC(N)=NC(N)=Nc1ccc(Cl)cc1"
  growth, %: 108
